Hey, just so you know, these numbers are from paper PMC12433258.

TARGET OR SYSTEM: T1, PSB‐I^143–238 construct (peptide‐substrate–binding domain of the α‐I subunit of human collagen prolyl … (human, UniProt P13674 160-255))
T1 construct: numbers count on: the mature protein (α-I subunit after cleavage of the signal peptide); Monomer by SEC-MALS; also called PSB‐I construct; PSB‐I domain; source: E. coli Rosetta(DE3)pLysS, pET22b(+), purified (Ni‐NTA, Superdex75 SEC); not shown: Leu-Glu-His6, C-terminal, kept
T1 sequence (P13674 160-255): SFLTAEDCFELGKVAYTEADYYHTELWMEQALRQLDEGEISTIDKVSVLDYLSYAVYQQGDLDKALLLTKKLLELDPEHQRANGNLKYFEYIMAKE
TEST DESCRIPTION: ITC; 3 mM peptide titrated into 50 μM PSB‐I^143–238 in the cell; 20 mM Bis‐Tris, 100 mM glycine, pH 6.8; 25°C; one‐set‐of‐sites model with fixed stoichiometry (n = 1); three measurements
CONDITIONS: both partners purified
MEASURED METRIC: dH (kcal/mol)
Numbers only, in kcal/mol.

Record dH per entry; entries follow.
1. PPGPAGPPG (collagen-like model peptide, 9 residues, free amino and free carboxylate ends; also called PxGP‐peptide; source: synthetic peptide; bought: TAG Copenhagen A/S) [PPG‐PAG‐PPG peptide]
2. PPGPEGPPG (collagen-like model peptide, 9 residues, free amino and free carboxylate ends; also called PxGP‐peptide; source: synthetic peptide; bought: TAG Copenhagen A/S) [PPG‐PEG‐PPG peptide]
3. PPGPPGPPG (collagen-like model peptide, 9 residues, free amino and free carboxylate ends; also called (PPG)3; source: synthetic peptide; bought: TAG Copenhagen A/S) [PPG‐PPG‐PPG peptide]
4. PPGPRGPPG (collagen-like model peptide, 9 residues, free amino and free carboxylate ends; also called PxGP‐peptide; source: synthetic peptide; bought: TAG Copenhagen A/S) [PPG‐PRG‐PPG peptide]
5. PPPPPPPPP (polyproline peptide of 9 residues, free amino and free carboxylate ends; printed as (Pro)9; also called P9; source: synthetic peptide; bought: TAG Copenhagen A/S) [(Pro)9 peptide]

[-12.4, -13.2, -13.6, -14.9, -9.5]
